system: SK-MEL-2 melanoma; test: NCI-60 one-dose screen, 48 h (100 = growth as untreated, 0 = no growth, -100 = all killed); conditions: 10 µM unless noted
The panel holds about 83,000 compounds, 20% with a hit somewhere; the sample as a whole holds those more often.
Classification field: enter 1 for growth values not below 90%, -1 for values below it.

Lookup: Assess whether reported growth for C[C@H](NC(=O)c1ccc2c(-c3ccc(C(F)(F)F)cc3)cccc2c1)c1ccccn1 sits at 90% or higher.
Found: -1

Lookup: Now try CC(C)C[C@H](NC(=O)CNC(=O)C[C@H]1O[C@@H]2OC3(C)CC[C@H]4[C@H](C)CC[C@@H]([C@H]1C)[C@@]24O3)B(O)O .
Found: -1

====

test system: T-47D breast; test: NCI-60 one-dose screen, 48 h; settings: 10 µM unless noted
The panel holds about 83,000 compounds, 20% with a hit somewhere; the sample as a whole holds those more often. Activity calls are given as the source filed them. Rule for the calls: active = growth percent below 10; inactive = the rest.
Pick one and only one: active, inactive

Check out these entries, answers already filled in.
> print(dat)
                                   compound   test.target  class.name
1  O=C(c1ccc(O)cc1)C1[C@H](c2ccc(Cl)cc2)[C@@H](c2ccccc2)NC12C(=O)Nc1ccccc12 (some centres undefined)  T-47D breast    inactive
2  CN1CCN(c2ccc3c4c(cccc24)C(=O)N(c2cccc(-c4nn(-c5ccccc5)cc4-c4nc5ccccc5s4)c2)C3=O)CC1  T-47D breast    inactive
3  COc1cc(C2CC(c3ccc(F)cc3)=Nc3c(N)nc(N)nc3N2)ccc1Oc1nc(Nc2ccc(F)cc2)nc(N(C)C)n1 (centres undefined)  T-47D breast    inactive
4  Clc1ccc(-c2nc3ccc(-c4nnc(SCc5ccccc5)o4)cc3[nH]2)cc1  T-47D breast      active
5  CCCn1c(NC(=O)c2cccc(C(N)=O)c2)nc2ccc(CN3CCCCC3)cc21  T-47D breast    inactive
6  Cc1ccc(O)cc1Nc1nc(SCCN2CCOCC2)nc2c1cnn2CC(Cl)c1ccc(Br)cc1 (centres undefined)  T-47D breast      active

Okay, now this compound:
Lookup: Per the assay record, what outcome was assigned to O=c1ccc(Cn2c(C(F)(F)F)cc3c(Cl)ncnc32)c[nH]1 ?
Found: inactive

====

tested on: NCI-H522 lung; test: NCI-60 one-dose screen, 48 h; settings: 10 µM unless noted
This is part of a sample that, as a whole, favours compounds with a hit. Of some 83,000 tested, about 20% had one in any assay. Calls of active or inactive are those of the source. How the source made its calls: active means growth percent below 10; inactive means the rest.
Give your call using only these classes: active, inactive

These recorded examples may help you get a feel for the data.
> print(dat)
                                   molecule    test.target  class.name
1  O=C(OCCOCCO)N(c1cccc(Br)c1)c1nc(SCCN2CCOCC2)nc2c1cnn2CC(Cl)c1ccc(Br)cc1 (centres undefined)  NCI-H522 lung      active
2  CN(C)c1nc(NCCNS(=O)(=O)c2ccc(C(=O)/C=C/c3ccc(F)cc3)cc2)nc(N2CCOCC2)n1  NCI-H522 lung    inactive
3  COC(=O)c1cccc(Oc2ccc(NC(=O)Nc3cc(C(F)(F)F)ccc3F)cc2)c1  NCI-H522 lung    inactive

From here, focus on the item given below.
Lookup: Please let me know the test result on file for Fc1ccc(F)c(CNc2nc(SCCN3CCOCC3)nc3c2cnn3CC(Cl)c2ccc(Br)cc2)c1 (centres undefined) .
Found: inactive

Reference source for all entries: PubChem BioAssay (NCI)
